Test: in vitro
Conditions: African green monkey
EXPERIMENTAL ENDPOINT: CC50 (µM)

[[record]]
molecule = "COc1cc(NC(C(=O)c2c[nH]c3c4c(ccc23)OCC4)c2ccc(F)cc2OC)cc(OCCO)c1 (single isomer, unassigned)"
experimental_endpoint = "CC50"
readout_units = "µM"
recorded_value = 12

[[record]]
molecule = "COc1cc(NC(C(=O)c2c[nH]c3c(C)cc(Cl)cc23)c2ccc(F)cc2OC)cc(OCCO)c1 (racemic)"
experimental_endpoint = "CC50"
readout_units = "µM"
recorded_value = 4.9

[[record]]
molecule = "COc1cc(NC(C(=O)c2c[nH]c3cc(OC)c(Cl)cc23)c2ccc(F)cc2OC)cc(OCCO)c1 (racemic)"
experimental_endpoint = "CC50"
readout_units = "µM"
recorded_value = 6.7

[[record]]
molecule = "[2H]C(Nc1cc(OC)cc(OCCO)c1)(C(=O)c1c[nH]c2cc(F)ccc12)c1ccc(Cl)cc1OC (single isomer, unassigned) [Compound 13A-D]"
experimental_endpoint = "CC50"
readout_units = "µM"
recorded_value = 11

[[record]]
molecule = "COc1cc(NC(C(=O)c2c[nH]c3cc(OC(F)(F)F)c(C)cc23)c2ccc(F)cc2OC)cc(OCCO)c1 (racemic) [Compound 4]"
experimental_endpoint = "CC50"
readout_units = "µM"
recorded_value = 3.9

[[record]]
molecule = "COc1cc(NC(C(=O)c2c[nH]c3cc(F)c(C)cc23)c2ccc(Cl)cc2OC)cc(OCCO)c1 (racemic) [Compound 9]"
experimental_endpoint = "CC50"
readout_units = "µM"
recorded_value = 3.1


FYI, the data here is from patent US10730884B2.
